# subjectOfTest: ATP-dependent translocase ABCB1 (Homo sapiens)
# Sequence (P08183 whole entry): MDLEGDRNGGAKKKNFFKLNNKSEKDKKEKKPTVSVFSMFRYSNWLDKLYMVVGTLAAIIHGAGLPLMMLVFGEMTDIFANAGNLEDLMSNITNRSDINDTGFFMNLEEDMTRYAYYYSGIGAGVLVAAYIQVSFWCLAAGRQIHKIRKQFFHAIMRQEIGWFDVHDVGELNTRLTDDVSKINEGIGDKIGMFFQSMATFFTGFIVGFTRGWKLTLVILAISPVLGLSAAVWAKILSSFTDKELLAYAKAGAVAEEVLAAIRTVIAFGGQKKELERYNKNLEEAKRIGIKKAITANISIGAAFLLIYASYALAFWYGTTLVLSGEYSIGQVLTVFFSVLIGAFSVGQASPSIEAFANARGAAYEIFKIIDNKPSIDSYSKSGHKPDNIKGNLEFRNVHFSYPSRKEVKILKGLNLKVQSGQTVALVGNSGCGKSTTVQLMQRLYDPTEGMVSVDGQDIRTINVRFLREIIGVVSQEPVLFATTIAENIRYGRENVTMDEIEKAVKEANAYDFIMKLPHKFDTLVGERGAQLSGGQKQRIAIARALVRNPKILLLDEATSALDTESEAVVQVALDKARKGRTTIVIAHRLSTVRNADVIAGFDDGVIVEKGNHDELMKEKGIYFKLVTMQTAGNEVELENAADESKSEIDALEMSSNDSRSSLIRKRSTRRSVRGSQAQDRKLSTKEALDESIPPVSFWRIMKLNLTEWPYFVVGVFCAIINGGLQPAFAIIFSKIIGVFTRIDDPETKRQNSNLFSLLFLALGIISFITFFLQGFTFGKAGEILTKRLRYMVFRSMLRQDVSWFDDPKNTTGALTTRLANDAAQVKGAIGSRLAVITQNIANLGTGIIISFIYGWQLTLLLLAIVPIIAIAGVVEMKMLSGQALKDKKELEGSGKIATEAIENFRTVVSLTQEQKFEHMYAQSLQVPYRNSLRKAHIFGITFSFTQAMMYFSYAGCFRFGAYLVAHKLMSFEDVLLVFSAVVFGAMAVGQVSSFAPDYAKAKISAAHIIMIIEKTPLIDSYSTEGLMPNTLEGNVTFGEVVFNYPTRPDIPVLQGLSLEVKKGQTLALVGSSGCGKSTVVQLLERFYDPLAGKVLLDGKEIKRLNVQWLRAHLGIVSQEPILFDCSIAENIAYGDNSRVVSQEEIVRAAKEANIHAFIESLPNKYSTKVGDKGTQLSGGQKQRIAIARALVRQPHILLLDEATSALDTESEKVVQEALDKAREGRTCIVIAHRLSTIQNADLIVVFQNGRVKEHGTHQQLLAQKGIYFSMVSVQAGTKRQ
# testProtocol: TP_TRANSPORTER: inhibition of ATPase activity (Verapamil) in membranes from CEM/VLB100 cells
metric: Ki (nM)

[
  {
    "compound": "COC(=O)[C@@H]1C2CC3c4[nH]c5ccccc5c4CCN3CC2CC[C@@H]1OC(=O)c1cc(OC)c(OC)c(OC)c1 (stereo partly specified)",
    "quantityUnit": "nM",
    "reportedMeasurement": 2100
  }
]
